These entries and their values trace back to paper PMC10223898.

tgt: LsrK (Salmonella typhimurium)
measuredEndpoint: Kd (µM)
Numeric answer only, unit µM assumed.

-- ask Request the reported Kd associated with CCOc1cc(/C=N/NC(=N)N)ccc1OCc1ccc(Cl)cc1 [Compound 4171-0375]
-- reply 94.5

====

# IC50 values compiled below
tgt: LsrK (Salmonella typhimurium, UniProt Q8ZKQ6)
Construct: hexa-histidine (C); made in house; host or cells: E. coli BL21(DE3), pET-28a
Sequence (Q8ZKQ6 whole entry): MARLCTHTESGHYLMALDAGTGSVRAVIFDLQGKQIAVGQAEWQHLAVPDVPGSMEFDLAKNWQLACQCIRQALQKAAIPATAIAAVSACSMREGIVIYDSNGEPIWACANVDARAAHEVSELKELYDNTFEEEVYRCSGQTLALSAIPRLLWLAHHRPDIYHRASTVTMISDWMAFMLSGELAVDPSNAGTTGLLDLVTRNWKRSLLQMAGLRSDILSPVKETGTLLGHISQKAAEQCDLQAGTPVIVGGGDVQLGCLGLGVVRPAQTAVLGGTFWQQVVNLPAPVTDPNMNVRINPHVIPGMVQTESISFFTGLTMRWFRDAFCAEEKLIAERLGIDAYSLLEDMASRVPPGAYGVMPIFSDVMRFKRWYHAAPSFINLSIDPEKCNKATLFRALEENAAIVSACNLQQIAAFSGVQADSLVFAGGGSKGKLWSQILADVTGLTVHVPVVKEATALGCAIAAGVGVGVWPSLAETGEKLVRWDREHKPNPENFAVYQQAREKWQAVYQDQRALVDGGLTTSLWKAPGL
testDetails: LsrK inhibition assay (Kinase-Glo luminescence)
Type: biochemical, S. typhimurium
appliedConditions: dose-response 200–6.25 µM; 100 μM ATP, 300 μM DPD; mean ± SD, n = 3; read-out: LsrK (IC50)
Field: numeric (µM). Do not append units.

Sample records with IC50:
>>> print(df.to_string())
                                   compound  testvalue
0       Cc1ccc(NC(=O)C[C@H](C)n2ccnc2)cc1Cl        129
1  CCOc1cc(C2NC(C(=O)O)CS2)ccc1OCc1c(F)cccc1Cl (stereo not shown)        147
2           NCCc1cn(Cc2ccc(C(F)(F)F)cc2)nn1        148
3  COc1cc(/C=C2/SC(=S)N(c3cccc(C(F)(F)F)c3)C2=O)ccc1OCC(=O)O        121
4  Cc1c(CC(=O)O)c(=O)oc2c(C)c(OCc3ccc(F)cc3F)ccc12        153

-- ask Would you mind telling me what IC50 value was observed for CN1CCN(C(=O)c2ccc(NCc3ccc(F)cc3)c(S(=O)(=O)Nc3cccc(C(F)(F)F)c3)c2)CC1 ?
-- reply 73.7

-- ask Can you share its IC50? I mean this compound: CCOc1cc(/C=N/NC(=N)N)ccc1OCc1ccc(Cl)cc1
-- reply 26.1

====

Listed below: inhibition at 200 µM values for each entry.
tgt: LsrK (Salmonella typhimurium)
Construct: hexa-histidine (C); made in house; host or cells: E. coli BL21(DE3), pET-28a
testDetails: LsrK inhibition assay (Kinase-Glo luminescence)
Assay type: biochemical, S. typhimurium
appliedConditions: compound at 200 μM; mean ± SD, n = 3
Please give a number only; it is taken to be in %.

Record excerpt, results attached:
                                   compound      measuredendpoint  readingunit  testvalue
0  COc1cc(/C=C2/SC(=S)N(c3cccc(C(F)(F)F)c3)C2=O)ccc1OCC(=O)O  inhibition at 200 µM            %         63
1   CCOc1cc(/C=N/NC(=N)N)ccc1OCc1ccc(Cl)cc1  inhibition at 200 µM            %         98
2  CCOc1cc(C2NC(C(=O)O)CS2)ccc1OCc1c(F)cccc1Cl (stereo not shown)  inhibition at 200 µM            %         60
3  CN1CCN(C(=O)c2ccc(NCc3ccc(F)cc3)c(S(=O)(=O)Nc3cccc(C(F)(F)F)c3)c2)CC1  inhibition at 200 µM            %         75

-- ask Please give the measured inhibition at 200 µM for this compound: NCCc1cn(Cc2ccc(C(F)(F)F)cc2)nn1
-- reply 65

-- ask If you can, please state the reported inhibition at 200 µM value of Cc1c(CC(=O)O)c(=O)oc2c(C)c(OCc3ccc(F)cc3F)ccc12 .
-- reply 57

-- ask Using the record for Cc1ccc(NC(=O)C[C@H](C)n2ccnc2)cc1Cl , report its inhibition at 200 µM.
-- reply 58
